System: Phakopsora pachyrhizi
Test: Asian soybean rust (PHAKPA) disease control on soybean seedlings
Assay type: in vivo
Settings: Phakopsora pachyrhizi, 72 h, High volume application at 25 ppm, 3 day curative, read-out: PHAKPA 3DC (3 Day Curative) disease control
Observed Property: pest or weed control at 25 ppm

Examples with their reported pest or weed control at 25 ppm follow.
COc1ccnc(C(=O)N[C@@H](C)C(=O)OC(C)C(C)c2c(C)cccc2C)c1OC(=O)C(C)C (stereo partly shown)
> 80%
COc1ccnc(C(=O)N[C@H](C(=O)O[C@@H](C)[C@@H](C)c2ccc(F)cc2C)C(C)C)c1OC(C)=O
> 80%
COc1ccnc(C(=O)N[C@@H](C)C(=O)O[C@@H](C)[C@@H](C)c2ccccc2C)c1OCOC(=O)C(C)C
> 80%
COc1ccnc(C(=O)N[C@H](C(=O)O[C@@H](C)[C@H](C)c2ccccc2C)C(C)C)c1OC(=O)C(C)C
< 0%
COc1ccnc(C(=O)N[C@@H](C)C(=O)O[C@H](C)[C@H](C)c2c(C)cccc2C)c1OC(C)=O
> 80%
COc1ccnc(C(=O)N[C@@H](C)C(=O)O[C@H](C)[C@H](C)c2ccc(C)cc2C)c1OC(=O)C(C)C
< 80%
COc1ccnc(C(=O)N[C@@H](C)C(=O)O[C@H](C)[C@@H](C)c2ccc(F)cc2C)c1OC(C)=O
< 0%
COc1ccnc(C(=O)N[C@@H](C)C(=O)O[C@H](C)[C@H](C)c2ccccc2C)c1OC(=O)C(C)C
> 80%
COc1ccc([C@@H](C)[C@@H](C)OC(=O)[C@@H](NC(=O)c2nccc(OC)c2OC(C)=O)C(C)C)c(C)c1
< 0%
COc1ccnc(C(=O)N[C@@H](C)C(=O)O[C@@H](C)[C@@H](C)c2ccccc2C)c1O
> 80%

I have 4 compounds here; please give me pest or weed control at 25 ppm for each one.
1. COc1ccnc(C(=O)N[C@@H](C)C(=O)O[C@@H](C)[C@@H](C)c2ccccc2)c1OC(C)=O
2. COc1cc[n+]([O-])c(C(=O)N[C@@H](C)C(=O)O[C@@H](C)[C@@H](C)c2ccccc2C(F)(F)F)c1O
3. COc1ccnc(C(=O)N[C@@H](C)C(=O)OC(C)C(C)c2c(C)cccc2C)c1OC(C)=O (stereo partly shown)
4. COc1ccnc(C(=O)N[C@@H](C)C(=O)O[C@@H](C)[C@@H](C)c2ccccc2C)c1OC(=O)c1ccccc1

1. > 80%
2. < 80%
3. > 80%
4. > 80%
